System: S. cerevisiae Burl-1 ts mutant growth, BacTiter-Glo, 38.5C 24 h
method_description: restored growth of temperature-sensitive Burl-1 yeast – whole organism, S. cerevisiae, Burl-1 ts mutant, luminescence, counter-screen for SUMOylation pathway inhibitor project, dose response (AID 463199)
Calls of active or inactive are those of the source.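 How the source made its calls: active means AC50, the dose giving half-maximal effect, exceeds a fixed cutoff for a compound that rescues yeast growth under heat; inactive means the rest, inconclusive results apart.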
Result category, one only: Yes for active, No for inactive

Query: Per the records of this test, what outcome belongs to COc1ccc2nc(SCC(=O)N(C)CC(=O)Nc3ccc(F)cc3)[nH]c2c1 ?
Reply: No

Query: Would you kindly repeat that for COc1ccc(CN2CC(=O)N(c3ccccc3C)C2=S)cc1OC ?
Reply: No

Query: And then COc1ccc2oc(=O)c(C(=O)NCc3ccco3)cc2c1 , what is it?
Reply: Yes

Query: Quick one: Cc1ccc(/C=C/C(=O)O)cc1S(=O)(=O)N(CCO)CCO
Reply: No

Query: Repeat with CCOc1cc(-c2ccccc2)nc(N)n1
Reply: No

Query: Another: O=C(Nc1ccc([N+](=O)[O-])cn1)c1ccc2c(c1)OCO2
Reply: No

Query: Again, but for CCOC(=O)c1ccc(NC(=S)NCCCN2CCOCC2)cc1
Reply: No

Query: Can you handle O=C1NC2(CCCCO2)CO1 (configuration not stated) next?
Reply: No

Query: Cool, now O=C(NCc1cccnc1)C1CCN(S(=O)(=O)c2cccnc2)CC1
Reply: No

Query: Next record, please: O=C(NC1CCCCC1)c1n[nH]c2c1CCCCC2
Reply: No

Query: Okay, and Cc1nn(CC(=O)Nc2ccccn2)c(C)c1[N+](=O)[O-] ?
Reply: No

Query: What about O=C(CSc1nnc(-c2ccc(Br)cc2)o1)Nc1cccc2ccccc12 ?
Reply: No

====

Tested on: S. cerevisiae Burl-1 ts mutant growth, BacTiter-Glo, 38.5C 24 h
method_description: restored growth of temperature-sensitive Burl-1 yeast – whole organism, S. cerevisiae, Burl-1 ts mutant, luminescence, counter-screen for SUMOylation pathway inhibitor project, dose response (AID 463199)
Calls of active or inactive are those of the source.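 How the source made its calls: active means AC50, the dose giving half-maximal effect, exceeds a fixed cutoff for a compound that rescues yeast growth under heat; inactive means the rest, inconclusive results apart.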
API: response.call in yes (1) = active, no (0) = inactive

Query: What classification did CC(C)c1ccc(C2C(C(=O)c3ccco3)=C(O)C(=O)N2CCN2CCOCC2)cc1 (configuration not stated) end up with in this test?
Reply: no (0)

Query: Also need OC(COCc1cccs1)CN1CCCCCC1 (configuration not stated) , thanks.
Reply: no (0)

Query: Also check Cc1c(C(=O)NC(=S)Nc2ccccc2N2CCCC2)cccc1[N+](=O)[O-]
Reply: no (0)

Query: Also COc1cccc(C(=O)N2CCN(S(=O)(=O)Cc3ccccc3)CC2)c1OC ?
Reply: no (0)

Query: Same lookup for O=C(NCc1ccccc1Cl)c1ccc2c(c1)OCO2 , please.
Reply: no (0)

Query: Then this molecule: CC(=O)Cc1nsc(Nc2cccc(C)c2)n1
Reply: no (0)

Query: Then this molecule: Cc1nc2ccccc2c2ncccc12
Reply: no (0)

Query: Can you check O=C(C1CCN(S(=O)(=O)N2CCC3(CC2)OCCO3)CC1)N1CCC(Cc2ccccc2)CC1 next?
Reply: no (0)

Query: O=C(O)C1CCCCC1C(=O)Nc1ccc(S(=O)(=O)N2CCCC2)cc1 (configuration not stated) ?
Reply: no (0)

Query: Ok, now Cc1cccc(OCCN2CSC(=S)N(C)C2)c1
Reply: yes (1)

Query: Can you handle CCOC(=O)c1ccc(CNC(=O)Cn2nnc(-c3ccc(C)cc3)n2)o1 next?
Reply: no (0)

Query: One more molecule: O=C(COC(=O)c1ccccc1SCC(=O)N1CCCC1)NC1CCCCC1
Reply: no (0)

Query: Same thing, different molecule: O=C(Cn1sc2ccccc2c1=O)NC12CC3CC(CC(C3)C1)C2
Reply: no (0)

Query: Then what about the molecule CCn1c(C)c(C(C)=O)c(N2CCN(c3ccc(F)cc3)CC2)nc1=S ?
Reply: no (0)

Query: Entry to check: CCOC(=O)C1(c2ccccc2)CCN(CCC(=O)Nc2ccccc2OC)CC1
Reply: no (0)

Query: Subsequent entry: O=C(Nc1ccccn1)c1ccc(CN(c2ccccc2)S(=O)(=O)c2ccccc2)cc1
Reply: no (0)

Query: Another molecule: CN1CCCCC1=NCCCn1cnc2c1c(=O)n(C)c(=O)n2C
Reply: no (0)

Query: Same question, Cc1cccc(NC(=S)NC(=O)/C=C/c2ccco2)c1 this time
Reply: no (0)

Query: Try this molecule next: COc1cccc(C2/C(=C(/O)c3ccccc3)C(=O)C(=O)N2Cc2ccco2)c1 (configuration not stated)
Reply: no (0)

Query: Also Cc1ccc(NC(=O)CN2C(=O)COc3ccc(S(=O)(=O)N4CCOCC4)cc32)cc1F ?
Reply: no (0)

Query: What would you report for Cc1ccc(/C=C/C(=O)OCC(=O)N(CC(C)C)c2c(N)n(Cc3ccccc3)c(=O)[nH]c2=O)o1 ?
Reply: no (0)

Query: Consider next the molecule CCCOC(=O)C1=C(C)NC2=C(C(=O)CCC2)C1c1cccs1 (configuration not stated) in the same way.
Reply: no (0)

====

Test system: S. cerevisiae Burl-1 ts mutant growth, BacTiter-Glo, 38.5C 24 h
method_description: restored growth of temperature-sensitive Burl-1 yeast – whole organism, S. cerevisiae, Burl-1 ts mutant, luminescence, counter-screen for SUMOylation pathway inhibitor project, dose response (AID 463199)
Calls of active or inactive are those of the source.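 The calls were made as follows: active = AC50, the dose giving half-maximal effect, exceeds a fixed cutoff for a compound that rescues yeast growth under heat; inactive = the rest, inconclusive results apart.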
Select the matching outcome among active, inactive

Query: Recorded test call requested for CCN1CCCC1CN(Cc1cc2ccc(C)cc2[nH]c1=O)C(=S)Nc1ccccc1C(=O)OC (centres undefined)
Reply: inactive

Query: Next: COc1cc(CN2CCNC(=O)C2CC(=O)NCCc2ncccc2C)cc(OC)c1 (centres undefined)
Reply: inactive

Query: Also CCC1(CC)NC(=O)N(CC(=O)OCC(=O)NC(=O)c2ccccc2)C1=O , if possible.
Reply: inactive

Query: Then this molecule: N#Cc1ccc(Oc2ccc(S(=O)(=O)N3CCCCC3)cn2)cc1
Reply: inactive

Query: // repeat for CCOc1cc(/C=N/NC(=O)C(=O)N/N=C/c2ccc(O)c(OCC)c2)ccc1O and report
Reply: inactive

Query: Entry NC(=O)C1CCCN(C(=S)Nc2cccc3ccccc23)C1 (centres undefined) please
Reply: inactive

Query: Input CCC(CC)C(=O)Nc1ccc(S(=O)(=O)Nc2nccs2)cc1
Reply: active

Query: Then this molecule: Cc1ccsc1C(=O)NCCc1ccc(S(N)(=O)=O)cc1
Reply: inactive

Query: Follow-up item: CC1(C)C=C(c2ccc(O)cc2)CC(C)(C)N1
Reply: inactive

Query: Follow-up entry: COc1ccc(NC2CCCN(C(=O)c3csc(C)n3)C2)cc1 (centres undefined)
Reply: inactive

Query: How about this molecule: COc1cc(/C=C2\NC(=S)N(C)C2=O)ccc1OCc1cccc(F)c1
Reply: inactive

Query: # iterate: COc1cccc(Cn2cnc3c(NS(=O)(=O)c4cccc(Cl)c4Cl)c(C)c(C)cc32)c1
Reply: inactive

Query: Same question for CN(C=O)CP(=O)(O)CN(C)C=O please.
Reply: inactive

Query: How about CCCCC(=O)NC(=S)Nc1cccc(C(=O)O)c1 ?
Reply: inactive

Query: Okay, and O=C(COC(=O)c1c(F)cccc1F)c1ccc[nH]1 ?
Reply: inactive

Query: Repeat for the following molecule: Cc1ccc(S(=O)(=O)N2c3ccc(S(N)(=O)=O)cc3CC2C)cc1 (centres undefined)
Reply: inactive

Query: Ok, now CN(C(=O)c1cncc(Br)c1)C1C2CC3CC(C2)CC1C3 (centres undefined)
Reply: active

Query: Then what about the molecule O=C1CCCC2=C1C(c1ccncc1)c1c(nc(SCc3ccccc3Cl)[nH]c1=O)N2 (centres undefined) ?
Reply: inactive

Query: Moving on to the next molecule: CN(C)c1ccc(/C=C/c2cccc[n+]2[O-])cc1
Reply: inactive

Query: // next record CCC(C(=O)Nc1cccnc1)c1ccccc1 (centres undefined)
Reply: inactive

Query: Now the molecule CN(C)c1ccc(NC(=O)CSc2nc(N)c(C(=O)Nc3ccc(N(C)C)cc3)s2)cc1
Reply: inactive

Query: Now consider CCS(=O)(=O)N1CCC(C(=O)N2CCc3ccccc3C2)CC1 .
Reply: inactive

Query: Also check O=C(NCc1ccco1)C1CC(=O)N(c2ccc(Cl)cc2)C1 (centres undefined)
Reply: inactive

Query: Could you do the same for O=C(NCc1ccccc1)c1cccc(COc2ccc(Cl)cc2)c1 , please?
Reply: inactive

Query: Would you kindly repeat that for CCOC(=O)COc1nc(-c2ccc(C)cc2)cc(-c2ccco2)c1C#N ?
Reply: inactive

Query: // query: CC(Cc1ccc(O)c(O)c1)C(C)Cc1ccc(O)c(O)c1 (centres undefined)
Reply: inactive

Query: Then what about the molecule COc1ccc2c(CC(=O)Nc3ccc(OC)c(NS(=O)(=O)c4ccc(F)cc4)c3)coc2c1 ?
Reply: inactive

Query: What do you have for O=[N+]([O-])c1cncc([N+](=O)[O-])c1Nc1ccccc1Cl ?
Reply: inactive

Query: Input CC1CN(C(=O)c2cc([N+](=O)[O-])cc([N+](=O)[O-])c2)CC(C)O1 (centres undefined)
Reply: inactive

Query: Also check COC(=O)c1ccc(/C=N/NC(=O)C(=O)NCC2CCCO2)cc1 (centres undefined)
Reply: inactive

Query: Now consider O=C(c1ccc(Br)cc1)C(CN1CCOCC1)c1ccccc1 (centres undefined) and answer again.
Reply: active

Query: Param item: CCN1CCCC1CNC(=O)Cn1cnc2ccc(S(=O)(=O)N3CCC(C)CC3)cc2c1=O (centres undefined)
Reply: inactive

Query: Now the molecule COc1ccccc1CNC(=O)[C@H](C)NC(=O)C1CCN(C(=O)[C@@H](N)CC(C)C)CC1
Reply: inactive

Query: Continue with CC(=O)c1ccccc1C(=O)N1CCCC(N2CCN(Cc3ccc4c(c3)OCO4)CC2)C1 (centres undefined)
Reply: inactive

Query: Next record, please: Cc1ccccc1OCc1nc(-c2ccccc2)no1
Reply: inactive

Query: Param item: Cc1noc(C)c1Cc1ccc(O)cc1
Reply: inactive

Query: Same for CCCCC(=O)NCCc1ccc(S(N)(=O)=O)cc1
Reply: inactive

Query: Next record, please: COc1ccc(-n2nc(C(=O)NCC(=O)N3CCCC3)c3ccccc3c2=O)c(OC)c1
Reply: inactive

Query: Please answer likewise for CCOc1ccc(Cn2c(SCCCCC#N)nc3c2c(=O)n(C)c(=O)n3C)cc1OCC
Reply: inactive

Query: Same for CCOP(=O)(Cc1cc(C(=O)CC)c(C)o1)OCC
Reply: inactive

Query: What about COc1ccccc1N1CCN(CCN2C(=O)C3CCCCN3C2=O)CC1 (centres undefined) ?
Reply: inactive

Query: Same thing, different molecule: CCOC(=O)C1CCN(C(=O)COc2ccc(S(=O)(=O)N3CCOCC3)cc2C)CC1
Reply: inactive

Query: Follow-up entry: Cc1ccc(C(C(=O)NCC2CCCO2)N(Cc2ccccc2F)C(=O)Cn2nnc(-c3cccs3)n2)cc1 (centres undefined)
Reply: inactive

Query: Now give it for CC(C)Oc1ccc(CCC(=O)NNC(=O)c2ccccc2C(=O)O)cc1 too.
Reply: inactive
